B1: tRNA (parent)
chain: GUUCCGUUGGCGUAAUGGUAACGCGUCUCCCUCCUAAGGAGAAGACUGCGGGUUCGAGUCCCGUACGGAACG

variants of: B1; experiment: yeast fitness relative to wild type (ratio to wild type); higher = fitter; tRNA-Arg(CCU), competitive growth, 37 C, YPD
This sample holds only a part of the variants without activity.
Experimental Endpoint: yeast fitness

Mutation Label	yeast fitness
U16G G67U	0.774
G17C A36G C66U A69C	0.803
C31G U59A	0.779

Inquiry: Look up yeast fitness of U2A G17C C46U U59A and report it.
Reply text: ≤ 0.5

Inquiry: Look up yeast fitness of C4A U8C U59A and report it.
Reply text: ≤ 0.5

Inquiry: Look up yeast fitness of G44C C55U and report it.
Reply text: 0.731

Inquiry: Look up yeast fitness of U3C A36C A43C A69C and report it.
Reply text: ≤ 0.5

Inquiry: Look up yeast fitness of C22A A45C U47C U54G and report it.
Reply text: ≤ 0.5

Inquiry: Look up yeast fitness of U2C U28C and report it.
Reply text: 0.912

Inquiry: Look up yeast fitness of A20G C30A C31U A45C C55G and report it.
Reply text: ≤ 0.5

Inquiry: Look up yeast fitness of C4U A36G A40C G44C and report it.
Reply text: 0.596

Inquiry: Look up yeast fitness of G10C A20G and report it.
Reply text: 0.775

Inquiry: Look up yeast fitness of U8A A43C G44C and report it.
Reply text: ≤ 0.5

Inquiry: Look up yeast fitness of A20U G50A G68C and report it.
Reply text: ≤ 0.5

Inquiry: Look up yeast fitness of C5G C61U A69U and report it.
Reply text: 0.775

Inquiry: Look up yeast fitness of A40C G41A U47A G67C and report it.
Reply text: 0.637

Inquiry: Look up yeast fitness of C5A G63A and report it.
Reply text: 0.683

Inquiry: Look up yeast fitness of A37C G51A U53C C62A and report it.
Reply text: ≤ 0.5

Inquiry: Look up yeast fitness of C4A G12C U13G C30U and report it.
Reply text: 0.55

Inquiry: Look up yeast fitness of C5U C49U G56U and report it.
Reply text: 0.538

Inquiry: Look up yeast fitness of G6A G68C A69G and report it.
Reply text: 0.568
